Organism: Rattus norvegicus
Assay comment: Open TG-GATES - Regimen: Single
Format: toxicity, organism-based, Sprague-Dawley
Set-up: regimen Single, gender Male, age 6 weeks
Condition: in vivo, po, 100 mg/kg, 24 h, tissue Blood, route gavage, dose level High
This section presents compounds with their documented MCHC values.
The reply should contain only the number, in %.

Example entries begin here.
CN(C)CCCN1c2ccccc2CCc2ccc(Cl)cc21 : 32.5
CN(C)CCCN1c2ccccc2CCc2ccccc21 : 32.4
CC1=C(/C=C/C(C)=C/C=C/C(C)=C/CO)C(C)(C)CCC1 : 34.3

The record that follows has no MCHC shown yet.
QUERY: Name the reported MCHC value associated with the compound CN(C)CCN(Cc1cccs1)c1ccccn1
RESULT: 32.9

Recorded values, source ChEMBL document CHEMBL3885861.
